# Test system: MCF-7 cell line (breast cancer)
# PROTOCOL TEXT: MTT cytotoxicity assay, MCF-7
# Type: cell-based, human
# SETUP CONDITIONS: Homo sapiens, MCF7, MTT assay, MCF-7; read-out: IC50 ± SD, MCF-7, inhibition of growth of tumor cell lines
RECORDED METRIC: IC50 (nM)
Please give a number only; it is taken to be in nM.

GET /values?readout=IC50&system=MCF-7 cell line (breast cancer)&item= Cc1cc(Nc2cc(N3CCN(C)CC3)nc(Sc3ccc(NC(=O)C4CC4)cc3)n2)[nH]n1 [VX-680, Tozasertib, reference compound]
400

----------
# SUBJECT OF TEST: recombinant human Aurora-A (Homo sapiens)
# Sequence (O14965 whole entry): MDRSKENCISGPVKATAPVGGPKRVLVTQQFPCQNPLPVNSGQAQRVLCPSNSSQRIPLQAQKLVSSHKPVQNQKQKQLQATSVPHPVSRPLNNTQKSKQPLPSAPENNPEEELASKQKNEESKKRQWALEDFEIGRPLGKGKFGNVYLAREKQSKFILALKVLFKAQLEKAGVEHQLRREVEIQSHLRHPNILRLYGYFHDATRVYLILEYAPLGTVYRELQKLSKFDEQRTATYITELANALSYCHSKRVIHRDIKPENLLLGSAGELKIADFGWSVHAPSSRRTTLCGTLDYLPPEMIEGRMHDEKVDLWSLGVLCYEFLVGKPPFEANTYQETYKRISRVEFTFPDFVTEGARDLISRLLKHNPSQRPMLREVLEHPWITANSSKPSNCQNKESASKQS
# PROTOCOL TEXT: biochemical
# SETUP CONDITIONS: NADH consumption at 340 nm, 30 °C; read-out: IC50 ± SD, inhibition of Aurora-A kinase
Threshold-based label: IC50 under 6 µM gives 1 (yes), IC50 not under 6 µM gives 0 (no).

Does the reported IC50 of O=C1CSC(c2cn(C(=O)c3ccncc3)nc2-c2ccc(Br)cc2)N1c1ccccc1 (stereo not shown) stay below 6 µM?
1 (yes)

Does the reported IC50 of COc1ccc(-c2nn(C(=O)c3ccncc3)cc2C2SCC(=O)N2c2ccccc2)cc1 (stereo not shown) stay below 6 µM?
0 (no)

Does the reported IC50 of COc1ccc(-c2nn(C(=O)c3ccncc3)cc2C2SCC(=O)N2c2cccc(Cl)c2)cc1 (stereo not shown) stay below 6 µM?
1 (yes)

Does the reported IC50 of O=C1CSC(c2cn(C(=O)c3ccncc3)nc2-c2ccc([N+](=O)[O-])cc2)N1c1cccc(Cl)c1 (stereo not shown) stay below 6 µM?
1 (yes)

Does the reported IC50 of COc1ccc(-c2nn(C(=O)c3ccncc3)cc2C2SCC(=O)N2c2ccccc2[N+](=O)[O-])cc1 (stereo not shown) stay below 6 µM?
1 (yes)

Does the reported IC50 of COc1ccc(N2C(=O)CSC2c2cn(C(=O)c3ccncc3)nc2-c2ccc([N+](=O)[O-])cc2)cc1 (stereo not shown) stay below 6 µM?
1 (yes)

Does the reported IC50 of COc1ccc(-c2nn(C(=O)c3ccncc3)cc2C2SCC(=O)N2c2ccc(OC)cc2)cc1 (stereo not shown) stay below 6 µM?
0 (no)

----------
# SUBJECT OF TEST: recombinant human Aurora-A (Homo sapiens)
# PROTOCOL TEXT: biochemical
# SETUP CONDITIONS: NADH consumption at 340 nm, 30 °C; read-out: IC50 ± SD, inhibition of Aurora-A kinase
Threshold-based label: IC50 under 1000 nM gives 1, IC50 not under 1000 nM gives 0.

Here are 5 molecules together with their reported answers.
Does the reported IC50 of O=C1CSC(c2cn(C(=O)c3ccncc3)nc2-c2ccc([N+](=O)[O-])cc2)N1c1ccc([N+](=O)[O-])cc1 (centres unmarked) [Compound P-2] stay below 1000 nM?
0

Does the reported IC50 of O=C1CSC(c2cn(C(=O)c3ccncc3)nc2-c2ccc([N+](=O)[O-])cc2)N1c1ccccc1 (centres unmarked) [Compound P-1] stay below 1000 nM?
0

Does the reported IC50 of COc1ccccc1N1C(=O)CSC1c1cn(C(=O)c2ccncc2)nc1-c1ccc([N+](=O)[O-])cc1 (centres unmarked) [Compound P-7] stay below 1000 nM?
1

Does the reported IC50 of O=C1CSC(c2cn(C(=O)c3ccncc3)nc2-c2ccc([N+](=O)[O-])cc2)N1c1ccc(Cl)cc1 (centres unmarked) [Compound P-4] stay below 1000 nM?
0

Does the reported IC50 of O=C1CSC(c2cn(C(=O)c3ccncc3)nc2-c2ccc(Br)cc2)N1c1ccc([N+](=O)[O-])cc1 (centres unmarked) [Compound P-16] stay below 1000 nM?
0

Let us examine a further case.
Does the reported IC50 of O=C1CSC(c2cn(C(=O)c3ccncc3)nc2-c2ccc(Br)cc2)N1c1ccc(Cl)cc1 (centres unmarked) [Compound P-18] stay below 1000 nM?
0
